System: colorectal tissue transcripts
assay_text: SAGE of normal, adenoma and cancer colorectal tissue (transcript tag counts)
Design: species or system human
test_parameters: SAGE library AD1
Experimental: In an effort to identify potential molecular markers of early colorectal tumors, we have here analyzed gene expression in benign and malignant colorectal tumors in an unbiased and comprehensive fashion. […] The abundance of each tag provides a quantitative measure of the transcript level present within the mRNA population studied. […] For the current study, SAGE libraries derived from two samples of normal colonic epithelium, two colorectal adenomas, and two colorectal cancers were analyzed. […]
Binary call on AD1 (SAGE tag count): Yes from 3 upward, No beneath that.

{"residues": "ACTCTTGTTG (chemistry not fully specified)", "target": "colorectal tissue transcripts", "assigned_category": "No"}
{"residues": "GGCTGCCTGC (chemistry not fully specified)", "target": "colorectal tissue transcripts", "assigned_category": "Yes"}
{"residues": "ATTTCAAGAT (chemistry not fully specified)", "target": "colorectal tissue transcripts", "assigned_category": "No"}
{"residues": "GCTGGCACAT (chemistry not fully specified)", "target": "colorectal tissue transcripts", "assigned_category": "No"}
{"residues": "GCTGGCCCCG (chemistry not fully specified)", "target": "colorectal tissue transcripts", "assigned_category": "No"}
{"residues": "ACATTGGGTG (chemistry not fully specified)", "target": "colorectal tissue transcripts", "assigned_category": "Yes"}
{"residues": "CTGGGCCTCT (chemistry not fully specified)", "target": "colorectal tissue transcripts", "assigned_category": "No"}
{"residues": "CTTGATTCCC (chemistry not fully specified)", "target": "colorectal tissue transcripts", "assigned_category": "Yes"}
{"residues": "GGAACTGTGA (chemistry not fully specified)", "target": "colorectal tissue transcripts", "assigned_category": "Yes"}

###

System: colorectal tissue transcripts
assay_text: SAGE of normal, adenoma and cancer colorectal tissue (transcript tag counts)
Parameters: species or system human
test_parameters: SAGE library AD1
Binary call on AD1 (SAGE tag count): true (1) from 3 upward, false (0) beneath that.

{"residues": "CCTGCCCCCC (chemistry not fully specified)", "assigned_category": "true (1)"}
{"residues": "GTGGTTCACG (chemistry not fully specified)", "assigned_category": "false (0)"}
{"residues": "AAATCTGGCA (chemistry not fully specified)", "assigned_category": "false (0)"}
{"residues": "CACCCCTGAT (chemistry not fully specified)", "assigned_category": "true (1)"}
{"residues": "GCCATCCTCC (chemistry not fully specified)", "assigned_category": "false (0)"}
{"residues": "GCAAGAAAGT (chemistry not fully specified)", "assigned_category": "false (0)"}
{"residues": "CTGACCTGTG (chemistry not fully specified)", "assigned_category": "true (1)"}
{"residues": "CCAACACCAG (chemistry not fully specified)", "assigned_category": "false (0)"}
{"residues": "CTTCCAGCTA (chemistry not fully specified)", "assigned_category": "true (1)"}
{"residues": "ACCTGGGGAG (chemistry not fully specified)", "assigned_category": "false (0)"}

###

Each entry below carries its reported AD2 (SAGE tag count).
Tested on: colorectal tissue transcripts
assay_text: SAGE of normal, adenoma and cancer colorectal tissue (transcript tag counts)
Design: species or system human
test_parameters: SAGE library AD2

{"residues": "ATACTCCACT (chemistry not fully specified)", "target": "colorectal tissue transcripts", "AD2 (SAGE tag count)": 0}
{"residues": "CGCTGTGGGG (chemistry not fully specified)", "target": "colorectal tissue transcripts", "AD2 (SAGE tag count)": 8}
{"residues": "CTTATGGTCC (chemistry not fully specified)", "target": "colorectal tissue transcripts", "AD2 (SAGE tag count)": 1}
{"residues": "GCCCACGTCA (chemistry not fully specified)", "target": "colorectal tissue transcripts", "AD2 (SAGE tag count)": 0}
{"residues": "GCCATCCTCC (chemistry not fully specified)", "target": "colorectal tissue transcripts", "AD2 (SAGE tag count)": 1}
{"residues": "GGCCCTGCAG (chemistry not fully specified)", "target": "colorectal tissue transcripts", "AD2 (SAGE tag count)": 0}
{"residues": "GCAGCTCCTG (chemistry not fully specified)", "target": "colorectal tissue transcripts", "AD2 (SAGE tag count)": 2}
{"residues": "ACAATTGGTC (chemistry not fully specified)", "target": "colorectal tissue transcripts", "AD2 (SAGE tag count)": 0}
{"residues": "GTCCGAGTGC (chemistry not fully specified)", "target": "colorectal tissue transcripts", "AD2 (SAGE tag count)": 0}
{"residues": "ATTTCAAGAT (chemistry not fully specified)", "target": "colorectal tissue transcripts", "AD2 (SAGE tag count)": 2}
{"residues": "CTTGACATAC (chemistry not fully specified)", "target": "colorectal tissue transcripts", "AD2 (SAGE tag count)": 4}
{"residues": "GGGGCAGGGC (chemistry not fully specified)", "target": "colorectal tissue transcripts", "AD2 (SAGE tag count)": 10}
{"residues": "ATGTGCGTGG (chemistry not fully specified)", "target": "colorectal tissue transcripts", "AD2 (SAGE tag count)": 3}
{"residues": "CCTGTGACAG (chemistry not fully specified)", "target": "colorectal tissue transcripts", "AD2 (SAGE tag count)": 4}
{"residues": "GGCACCGTGC (chemistry not fully specified)", "target": "colorectal tissue transcripts", "AD2 (SAGE tag count)": 10}
{"residues": "CCTCCAGCTA (chemistry not fully specified)", "target": "colorectal tissue transcripts", "AD2 (SAGE tag count)": 125}
{"residues": "GCCAGACACC (chemistry not fully specified)", "target": "colorectal tissue transcripts", "AD2 (SAGE tag count)": 4}
{"residues": "GTGGGGGCGC (chemistry not fully specified)", "target": "colorectal tissue transcripts", "AD2 (SAGE tag count)": 0}
{"residues": "GCTGTGCCTG (chemistry not fully specified)", "target": "colorectal tissue transcripts", "AD2 (SAGE tag count)": 4}
{"residues": "GTATTGGGGC (chemistry not fully specified)", "target": "colorectal tissue transcripts", "AD2 (SAGE tag count)": 0}
{"residues": "CCTCCAGTAC (chemistry not fully specified)", "target": "colorectal tissue transcripts", "AD2 (SAGE tag count)": 3}
{"residues": "CTGGCCCTCG (chemistry not fully specified)", "target": "colorectal tissue transcripts", "AD2 (SAGE tag count)": 3}
{"residues": "ACTCTTGTTG (chemistry not fully specified)", "target": "colorectal tissue transcripts", "AD2 (SAGE tag count)": 0}
